# targetDesc: SMARCA4 (Homo sapiens (Human))
# Sequence (P51532 whole entry): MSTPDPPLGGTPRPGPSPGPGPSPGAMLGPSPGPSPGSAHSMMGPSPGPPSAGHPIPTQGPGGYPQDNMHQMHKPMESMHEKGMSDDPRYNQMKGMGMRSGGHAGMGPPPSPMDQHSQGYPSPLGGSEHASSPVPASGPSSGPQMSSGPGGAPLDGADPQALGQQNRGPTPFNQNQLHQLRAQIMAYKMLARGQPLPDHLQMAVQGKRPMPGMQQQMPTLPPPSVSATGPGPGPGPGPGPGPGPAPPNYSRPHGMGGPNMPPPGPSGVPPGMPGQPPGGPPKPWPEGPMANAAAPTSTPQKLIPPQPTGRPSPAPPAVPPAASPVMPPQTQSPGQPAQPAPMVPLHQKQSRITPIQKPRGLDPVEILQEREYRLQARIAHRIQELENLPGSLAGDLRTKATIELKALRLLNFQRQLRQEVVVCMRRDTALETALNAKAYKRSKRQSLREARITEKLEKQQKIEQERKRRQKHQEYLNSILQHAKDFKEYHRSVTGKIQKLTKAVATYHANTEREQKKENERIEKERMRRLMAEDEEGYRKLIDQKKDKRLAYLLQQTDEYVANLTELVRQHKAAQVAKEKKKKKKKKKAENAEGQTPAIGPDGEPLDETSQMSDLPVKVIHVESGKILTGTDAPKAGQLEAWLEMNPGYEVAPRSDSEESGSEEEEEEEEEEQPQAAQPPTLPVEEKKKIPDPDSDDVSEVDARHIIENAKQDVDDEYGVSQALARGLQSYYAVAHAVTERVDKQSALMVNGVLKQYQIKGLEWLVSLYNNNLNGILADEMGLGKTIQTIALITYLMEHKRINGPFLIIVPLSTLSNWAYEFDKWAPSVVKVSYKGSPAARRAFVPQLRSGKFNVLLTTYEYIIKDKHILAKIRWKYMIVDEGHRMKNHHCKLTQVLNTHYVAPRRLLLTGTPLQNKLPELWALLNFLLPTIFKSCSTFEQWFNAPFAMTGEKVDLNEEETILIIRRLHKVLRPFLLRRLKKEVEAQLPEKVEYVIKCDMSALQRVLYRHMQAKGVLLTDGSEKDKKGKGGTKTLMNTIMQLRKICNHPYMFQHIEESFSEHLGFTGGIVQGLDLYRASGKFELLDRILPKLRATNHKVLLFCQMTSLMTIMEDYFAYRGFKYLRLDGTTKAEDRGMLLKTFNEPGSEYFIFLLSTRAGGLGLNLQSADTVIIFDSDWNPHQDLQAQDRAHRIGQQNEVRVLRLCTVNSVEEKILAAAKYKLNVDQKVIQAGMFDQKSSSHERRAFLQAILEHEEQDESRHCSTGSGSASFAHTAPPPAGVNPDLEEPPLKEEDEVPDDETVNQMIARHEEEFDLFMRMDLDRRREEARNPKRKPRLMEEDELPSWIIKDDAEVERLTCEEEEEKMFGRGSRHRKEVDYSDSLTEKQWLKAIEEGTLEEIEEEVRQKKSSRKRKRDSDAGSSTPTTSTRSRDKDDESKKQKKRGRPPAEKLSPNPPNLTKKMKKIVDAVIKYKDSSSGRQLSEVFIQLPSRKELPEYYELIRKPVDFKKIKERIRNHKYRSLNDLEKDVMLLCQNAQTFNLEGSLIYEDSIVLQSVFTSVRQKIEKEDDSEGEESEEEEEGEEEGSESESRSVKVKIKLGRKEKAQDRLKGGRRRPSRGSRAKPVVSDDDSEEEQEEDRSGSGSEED
# procedureDetails: SMARCA4 HiBiT degradation assay in HeLa cells
# Format: cell-based
# setupConditions: HeLa, 18 hours, read-out: Dmax % (SM4-HeLa) maximum SMARCA4 degradation within the concentrations tested
# Description: HiBiT peptide knock-in of SMARCA2 in LgBiT expressing HEK293T cells was performed by CRISPR-mediated tagging system as described Promega. The homozygous HiBiT knock-in on c-terminus SMARCA2 was confirmed by sanger sequence. SMARCA2-HiBiT knock-in Hela monoclonal cell (CS302366) and SMARCA4-HiBiT knock-in Hela monoclonal cell (CS3023226) were purchased from Promega. The heterozygous HiBiT-knock-in was confirmed by sanger sequence in both SMARCA2-HiBiT and SMARCA4-HiBiT monoclonal cells. […]
valueKind: Dmax

Cc1ncsc1-c1ccc([C@H](C)NC(=O)[C@@H]2C[C@@H](O)CN2C(=O)[C@@H](c2cc(O[C@@H](C)CN3CCC(N4CCN5c6cc(-c7ccccc7O)nnc6NCC5(C)C4)C3)no2)C(C)C)cc1 (some centres unmarked)	> 75%

Task: Consider the compound shown here: `Cc1ncsc1-c1ccc([C@H](C)NC(=O)[C@@H]2C[C@@H](O)CN2C(=O)[C@@H](c2cc(O[C@@H](C)CN3CCC(CN4CCN5c6cc(-c7ccccc7O)nnc6NC[C@H]5C4)CC3)no2)C(C)C)cc1` What is its recorded Dmax?
Result: > 75%

* * *

# targetDesc: SMARCA4 (Homo sapiens (Human))
# procedureDetails: SMARCA4 HiBiT degradation assay in HeLa cells
# Assay type: cell-based
# setupConditions: HeLa, 18 hours, read-out: Dmax % (SM4-HeLa) maximum SMARCA4 degradation within the concentrations tested
Measured Dmax by item

These solved cases illustrate the format of a correct answer.
Cc1ncsc1-c1ccc([C@H](C)NC(=O)[C@@H]2C[C@@H](O)CN2C(=O)[C@@H](c2cc(OC(C)CN3CCC(N4CCN5c6cc(-c7ccccc7O)nnc6NC[C@H]5C4)CC3)no2)C(C)C)cc1 (stereo partly shown) [Example 57]	50 to 75%
Cc1ncsc1-c1ccc([C@H](C)NC(=O)[C@@H]2C[C@@H](O)CN2C(=O)[C@@H](c2cc(OCCN3CCC(N(C)C4CCN5c6cc(-c7ccccc7O)nnc6NCC5C4)CC3)no2)C(C)C)cc1 (stereo partly shown) [Example 99]	> 75%
Cc1ncsc1-c1ccc([C@H](C)NC(=O)[C@@H]2C[C@@H](O)CN2C(=O)[C@@H](c2cc(CCCN(C)CCN3CCN4c5cc(-c6ccccc6O)nnc5NC[C@H]4C3)no2)C(C)C)cc1 [Example 92]	≤ 50%

For the next question, use this molecule.
Task: Form: Entry = Cc1ncsc1-c1ccc([C@H](C)NC(=O)[C@@H]2C[C@@H](O)CN2C(=O)[C@@H](c2cc(OCC(=O)N3CCC(N4CCN5c6cc(-c7ccccc7O)nnc6NC[C@H]5C4)C(C)C3)no2)C(C)C)cc1 (single isomer, unassigned) [Example 30] | System = SMARCA4 (Homo sapiens (Human)) | Dmax = ____
Result: > 75%

* * *

# targetDesc: SMARCA2 (Homo sapiens (Human), UniProt P51531)
# Sequence (P51531 whole entry): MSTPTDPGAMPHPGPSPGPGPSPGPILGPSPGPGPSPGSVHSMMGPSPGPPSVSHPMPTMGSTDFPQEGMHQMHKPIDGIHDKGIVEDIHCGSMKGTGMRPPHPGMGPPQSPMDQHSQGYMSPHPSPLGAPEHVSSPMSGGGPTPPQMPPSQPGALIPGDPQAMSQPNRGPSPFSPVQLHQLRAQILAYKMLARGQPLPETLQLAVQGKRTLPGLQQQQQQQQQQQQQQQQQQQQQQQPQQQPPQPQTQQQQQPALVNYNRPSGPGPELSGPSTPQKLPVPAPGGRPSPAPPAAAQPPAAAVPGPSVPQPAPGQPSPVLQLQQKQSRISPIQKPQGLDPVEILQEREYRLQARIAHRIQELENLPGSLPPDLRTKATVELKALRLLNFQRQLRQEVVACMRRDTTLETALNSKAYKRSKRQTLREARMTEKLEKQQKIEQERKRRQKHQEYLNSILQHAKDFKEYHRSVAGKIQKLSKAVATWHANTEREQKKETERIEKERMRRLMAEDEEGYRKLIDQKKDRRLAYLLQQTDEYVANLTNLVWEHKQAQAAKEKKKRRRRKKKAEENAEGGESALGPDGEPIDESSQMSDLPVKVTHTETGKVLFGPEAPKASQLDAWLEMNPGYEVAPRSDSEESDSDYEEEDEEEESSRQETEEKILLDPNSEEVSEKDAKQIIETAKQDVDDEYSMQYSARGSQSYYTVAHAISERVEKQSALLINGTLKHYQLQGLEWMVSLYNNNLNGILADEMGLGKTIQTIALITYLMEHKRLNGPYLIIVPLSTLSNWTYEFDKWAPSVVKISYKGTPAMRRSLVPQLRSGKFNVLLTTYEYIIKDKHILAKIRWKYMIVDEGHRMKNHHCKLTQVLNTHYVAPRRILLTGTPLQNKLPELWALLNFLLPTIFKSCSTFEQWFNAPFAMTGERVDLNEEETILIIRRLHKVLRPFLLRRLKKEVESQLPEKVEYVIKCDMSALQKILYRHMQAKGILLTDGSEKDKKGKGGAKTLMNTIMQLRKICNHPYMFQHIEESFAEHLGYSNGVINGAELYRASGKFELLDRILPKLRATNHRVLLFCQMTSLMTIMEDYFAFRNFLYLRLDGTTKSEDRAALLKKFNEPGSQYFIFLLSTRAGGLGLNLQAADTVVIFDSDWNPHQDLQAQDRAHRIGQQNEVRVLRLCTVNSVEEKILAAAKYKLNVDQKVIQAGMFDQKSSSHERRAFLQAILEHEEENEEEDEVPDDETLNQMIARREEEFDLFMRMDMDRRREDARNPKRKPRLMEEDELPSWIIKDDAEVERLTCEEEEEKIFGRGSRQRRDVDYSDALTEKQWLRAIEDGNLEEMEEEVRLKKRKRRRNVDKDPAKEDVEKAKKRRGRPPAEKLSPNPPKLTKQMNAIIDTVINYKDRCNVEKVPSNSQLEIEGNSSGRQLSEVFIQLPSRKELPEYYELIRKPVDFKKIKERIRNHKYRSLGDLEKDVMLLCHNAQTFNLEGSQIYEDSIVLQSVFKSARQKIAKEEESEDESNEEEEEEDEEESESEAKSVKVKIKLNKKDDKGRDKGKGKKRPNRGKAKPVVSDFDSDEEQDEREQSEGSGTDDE
# procedureDetails: SMARCA2 HiBiT degradation assay in HEK293T cells
# Assay type: cell-based
# setupConditions: 293T HiBiT assay, 24 h; read-out: DC50 (SM2-293T) SMARCA2 degradation potency
The entries below are paired with their reported DC50.

Sample records with DC50:
Cc1ncsc1-c1ccc([C@H](C)NC(=O)[C@@H]2C[C@@H](O)CN2C(=O)[C@@H](c2cc(OCCN3CCCC(CN4CCN5c6cc(-c7ccccc7O)nnc6NC[C@H]5C4)CC3)no2)C(C)C)cc1 (stereo partly drawn)	< 100 nM
Cc1ncsc1-c1ccc([C@H](C)NC(=O)[C@@H]2C[C@@H](O)CN2C(=O)[C@@H](c2cc(OC(C)CN3CCC(N4CCN5c6cc(-c7ccccc7O)nnc6NC[C@H]5C4)CC3)no2)C(C)C)cc1 (stereo partly drawn)	< 100 nM
Cc1ncsc1-c1ccc([C@H](C)NC(=O)[C@@H]2C[C@@H](O)CN2C(=O)[C@@H](c2cc(OCCN3CCC(CN4CCN5c6cc(-c7ccccc7O)nnc6NC[C@H]5C4)C3)no2)C(C)C)cc1 (stereo partly drawn)	< 100 nM
Cc1ncsc1-c1ccc([C@H](C)NC(=O)[C@@H]2C[C@@H](O)CN2C(=O)[C@@H](NC(=O)CN2CC(N3CCN4c5cc(-c6ccccc6O)nnc5NCC4C3)C2)C(C)(C)C)cc1 (stereo partly drawn)	100 to 1000 nM
Cc1ncsc1-c1ccc([C@H](C)NC(=O)[C@@H]2C[C@@H](O)CN2C(=O)[C@@H](c2cc(OCCN3CCC(N4CCN5c6cc(-c7ccccc7O)nnc6NC[C@H]5C4)C(F)C3)no2)C(C)C)cc1 (stereo partly drawn)	< 100 nM

Task: DC50 of Cc1ncsc1-c1ccc([C@H](C)NC(=O)[C@@H]2C[C@@H](O)CN2C(=O)[C@@H](c2cc(OCCN3CCC(N4CCN5c6cc(-c7ccccc7O)nnc6NC[C@H]5C4)C3)no2)C(C)C)cc1 (single isomer, unassigned) [Example 18] on SMARCA2 (Homo sapiens (Human), UniProt P51531)?
Result: < 100 nM

Task: Item Cc1ncsc1-c1ccc([C@H](C)NC(=O)[C@@H]2C[C@@H](O)CN2C(=O)[C@@H](c2cc(OC(C)CN3CCCC(CN4CCN5c6cc(-c7ccccc7O)nnc6NC[C@H]5C4)CC3)no2)C(C)C)cc1 (stereo partly drawn) with SMARCA2 (Homo sapiens (Human), UniProt P51531) - DC50?
Result: < 100 nM

Task: DC50 of `Cc1ncsc1-c1ccc([C@H](C)NC(=O)[C@@H]2C[C@@H](O)CN2C(=O)[C@@H](c2cc(OCCN3CCC(N4CCN5c6cc(-c7ccccc7O)nnc6NC[C@@H]5C4)CC3)no2)C(C)C)cc1` on SMARCA2 (Homo sapiens (Human), UniProt P51531)?
Result: < 100 nM

Task: Provide the documented DC50 with SMARCA2 (Homo sapiens (Human), UniProt P51531) as the system for Cc1ncsc1-c1ccc([C@H](C)NC(=O)[C@@H]2C[C@@H](O)CN2C(=O)C(c2cc(COc3cc(N4CCN5c6cc(-c7ccccc7O)nnc6NCC5C4)ccn3)no2)C(C)C)cc1 (stereo partly drawn)
Result: 100 to 1000 nM
